# test_target: T1, Human CD40 antigen (recombinant, BLI) (human, UniProt P25942 21-193)
# T1 construct: also called rh-CD40
# T1 sequence (P25942 21-193 limits assumed): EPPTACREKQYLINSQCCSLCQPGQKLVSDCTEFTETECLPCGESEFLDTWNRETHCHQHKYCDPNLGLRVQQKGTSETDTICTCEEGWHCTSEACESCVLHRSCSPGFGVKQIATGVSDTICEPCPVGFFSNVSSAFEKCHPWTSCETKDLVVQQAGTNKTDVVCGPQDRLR
# test_description: BLI, VHH-His on anti-His tips, human CD40 in solution;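 also: kinetics measured at 30 °C in PBS pH 7.2, association tracked for 200 s, then dissociation followed in PBS lacking CD40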
pKd: −log10 of the molar value.
readout_label: pKd

a = pgDD40-HZ-58 (VHH, not shown: small tags and cut ends) VHH: QVQLVESGGGLVQPGESLTLSCVTSGFVFSNHWMYWDRQAPGKGLEWVADINLGGEMTYYSNSVKGRFTISRDNAKNTVSLRMDNLKVEDTAVYFCAANQQTPPYGLGSREYDYDYWGQGTQVTVSS
b = pgDD40-HZ-47 (VHH, not shown: small tags and cut ends) VHH: QVQLVESGGGLVQPGGSMRLSCSASGFSISVYWMSWVRRAPGKGLEWVSNLGADGVTAQYSDSVKGRFTIARDTAKNTLYLQMNSLKPEDTAVYYCNAMTGMNPAEEEAYWGQGTQVTVSS
Please indicate which item has the smaller measured pKd: a versus b Use the label to indicate which entry you chose.
b

All values here come from patent US20250376535A1.
